System: Mycobacterium tuberculosis Erdman (autoluminescent)
Test: AUC25, normalised area under dose response up to IC25 (fraction (0-1)); higher = more potent at low dose
Conditions: in vitro model: acidic pH 5.7; time point: constant (~7 days, model-specific)
recorded_endpoint: AUC25

These recorded examples may help you get a feel for the data.
[
  {
    "molecule": "COc1c(N2C[C@@H]3CCCN[C@@H]3C2)c(F)cc2c(=O)c(C(=O)O)cn(C3CC3)c12 [moxifloxacin] + O=[N+]([O-])c1cn2c(n1)OC[C@@H](OCc1ccc(OC(F)(F)F)cc1)C2 [pretomanid]",
    "AUC25": 0.139
  },
  {
    "molecule": "CC(C)/N=c1\\cc2n(-c3ccc(Cl)cc3)c3ccccc3nc-2cc1Nc1ccc(Cl)cc1 [clofazimine] + CC(=O)NC[C@H]1CN(c2ccc(N3CCOCC3)c(F)c2)C(=O)O1 [linezolid]",
    "AUC25": 0.0778
  },
  {
    "molecule": "CC(=O)NC[C@H]1CN(c2ccc(N3CCOCC3)c(F)c2)C(=O)O1 [linezolid] + O=[N+]([O-])c1cn2c(n1)OC[C@@H](OCc1ccc(OC(F)(F)F)cc1)C2 [pretomanid]",
    "AUC25": 0.116
  }
]

Switching to the query record.
The measured AUC25 associated with COc1c(N2C[C@@H]3CCCN[C@@H]3C2)c(F)cc2c(=O)c(C(=O)O)cn(C3CC3)c12 [moxifloxacin] + CO[C@H]1/C=C/O[C@@]2(C)Oc3c(C)c(O)c4c(O)c(c(/C=N/N5CCN(C)CC5)c(O)c4c3C2=O)NC(=O)/C(C)=C\C=C\[C@H](C)[C@H](O)[C@@H](C)[C@@H](O)[C@@H](C)[C@H](OC(C)=O)[C@@H]1C [rifampicin] reads 0.0689

----------
Test system: Mycobacterium tuberculosis Erdman (autoluminescent)
Test: FIC90 (Loewe) at 90% inhibition (log2); higher = more antagonistic
Conditions: in vitro model: cholesterol-high 0.2 mM; time point: constant (~7 days, model-specific)
Below, each of the compounds is paired with its reported FIC90 value.
Write the value as a bare number.

[
  {
    "compound": "COc1c(N2C[C@@H]3CCCN[C@@H]3C2)c(F)cc2c(=O)c(C(=O)O)cn(C3CC3)c12 [moxifloxacin] + O=[N+]([O-])c1cn2c(n1)OC[C@@H](OCc1ccc(OC(F)(F)F)cc1)C2 [pretomanid]",
    "assay_value": 1.96
  },
  {
    "compound": "CC(C)/N=c1\\cc2n(-c3ccc(Cl)cc3)c3ccccc3nc-2cc1Nc1ccc(Cl)cc1 [clofazimine] + O=[N+]([O-])c1cn2c(n1)OC[C@@H](OCc1ccc(OC(F)(F)F)cc1)C2 [pretomanid]",
    "assay_value": 0.676
  },
  {
    "compound": "COc1c(N2C[C@@H]3CCCN[C@@H]3C2)c(F)cc2c(=O)c(C(=O)O)cn(C3CC3)c12 [moxifloxacin] + CO[C@H]1/C=C/O[C@@]2(C)Oc3c(C)c(O)c4c(O)c(c(/C=N/N5CCN(C6CCCC6)CC5)c(O)c4c3C2=O)NC(=O)/C(C)=C\\C=C\\[C@H](C)[C@H](O)[C@@H](C)[C@@H](O)[C@@H](C)[C@H](OC(C)=O)[C@@H]1C [rifapentine]",
    "assay_value": -0.159
  },
  {
    "compound": "NNC(=O)c1ccncc1 [isoniazid] + COc1c(N2C[C@@H]3CCCN[C@@H]3C2)c(F)cc2c(=O)c(C(=O)O)cn(C3CC3)c12",
    "assay_value": 0.277
  },
  {
    "compound": "CC(=O)NC[C@H]1CN(c2ccc(N3CCOCC3)c(F)c2)C(=O)O1 [linezolid] + COc1c(N2C[C@@H]3CCCN[C@@H]3C2)c(F)cc2c(=O)c(C(=O)O)cn(C3CC3)c12 [moxifloxacin]",
    "assay_value": 0.814
  },
  {
    "compound": "CC(C)/N=c1\\cc2n(-c3ccc(Cl)cc3)c3ccccc3nc-2cc1Nc1ccc(Cl)cc1 [clofazimine] + CO[C@H]1/C=C/O[C@@]2(C)Oc3c(C)c(O)c4c(O)c(c(/C=N/N5CCN(C)CC5)c(O)c4c3C2=O)NC(=O)/C(C)=C\\C=C\\[C@H](C)[C@H](O)[C@@H](C)[C@@H](O)[C@@H](C)[C@H](OC(C)=O)[C@@H]1C [rifampicin]",
    "assay_value": 2.49
  },
  {
    "compound": "CC(=O)NC[C@H]1CN(c2ccc(N3CCOCC3)c(F)c2)C(=O)O1 [linezolid] + CO[C@H]1/C=C/O[C@@]2(C)Oc3c(C)c(O)c4c(O)c(c(/C=N/N5CCN(C6CCCC6)CC5)c(O)c4c3C2=O)NC(=O)/C(C)=C\\C=C\\[C@H](C)[C@H](O)[C@@H](C)[C@@H](O)[C@@H](C)[C@H](OC(C)=O)[C@@H]1C [rifapentine]",
    "assay_value": -0.688
  }
]

# ---- query compound ----
GET /value?item= COc1nc2ccc(Br)cc2cc1[C@@H](c1ccccc1)[C@@](O)(CCN(C)C)c1cccc2ccccc12 [bedaquiline] + CO[C@H]1/C=C/O[C@@]2(C)Oc3c(C)c(O)c4c(O)c(c(/C=N/N5CCN(C6CCCC6)CC5)c(O)c4c3C2=O)NC(=O)/C(C)=C\C=C\[C@H](C)[C@H](O)[C@@H](C)[C@@H](O)[C@@H](C)[C@H](OC(C)=O)[C@@H]1C [rifapentine] &field=FIC90 returns -0.159

----------
Test system: Mycobacterium tuberculosis Erdman (autoluminescent)
Experiment: total FIC50 (Loewe) at 50% inhibition, three-drug combination (log2); higher = more antagonistic
Conditions: in vitro model: acidic pH 5.7; time point: constant (~7 days, model-specific)
recorded_endpoint: total FIC50
Keep it simple and answer with nothing but the number.

Worked examples follow.
[
  {
    "compound": "COc1nc2ccc(Br)cc2cc1[C@@H](c1ccccc1)[C@@](O)(CCN(C)C)c1cccc2ccccc12 [bedaquiline] + O=[N+]([O-])c1cn2c(n1)OC[C@@H](OCc1ccc(OC(F)(F)F)cc1)C2 [pretomanid] + CO[C@H]1/C=C/O[C@@]2(C)Oc3c(C)c(O)c4c(O)c(c(/C=N/N5CCN(C)CC5)c(O)c4c3C2=O)NC(=O)/C(C)=C\\C=C\\[C@H](C)[C@H](O)[C@@H](C)[C@@H](O)[C@@H](C)[C@H](OC(C)=O)[C@@H]1C [rifampicin]",
    "total FIC50": 0.68
  },
  {
    "compound": "COc1nc2ccc(Br)cc2cc1[C@@H](c1ccccc1)[C@@](O)(CCN(C)C)c1cccc2ccccc12 [bedaquiline] + CC(C)/N=c1\\cc2n(-c3ccc(Cl)cc3)c3ccccc3nc-2cc1Nc1ccc(Cl)cc1 [clofazimine] + CC(=O)NC[C@H]1CN(c2ccc(N3CCOCC3)c(F)c2)C(=O)O1 [linezolid]",
    "total FIC50": 0.0418
  },
  {
    "compound": "CC(=O)NC[C@H]1CN(c2ccc(N3CCOCC3)c(F)c2)C(=O)O1 [linezolid] + COc1c(N2C[C@@H]3CCCN[C@@H]3C2)c(F)cc2c(=O)c(C(=O)O)cn(C3CC3)c12 [moxifloxacin] + NC(=O)c1cnccn1 [pyrazinamide]",
    "total FIC50": -0.252
  }
]

Attention now shifts to the item below.
Record CC(C)/N=c1\cc2n(-c3ccc(Cl)cc3)c3ccccc3nc-2cc1Nc1ccc(Cl)cc1 [clofazimine] + CC(=O)NC[C@H]1CN(c2ccc(N3CCOCC3)c(F)c2)C(=O)O1 [linezolid] + COc1c(N2C[C@@H]3CCCN[C@@H]3C2)c(F)cc2c(=O)c(C(=O)O)cn(C3CC3)c12 [moxifloxacin] , field total FIC50: -0.736

----------
System: Mycobacterium tuberculosis Erdman (autoluminescent)
Assay: AUC25, normalised area under dose response up to IC25 (fraction (0-1)); higher = more potent at low dose
Settings: in vitro model: cholesterol 0.05 mM; time point: constant (~7 days, model-specific)
Consider the following compounds and their measured AUC25 readings.

[
  {
    "compound": "NNC(=O)c1ccncc1 [isoniazid] + NC(=O)c1cnccn1 [pyrazinamide]",
    "AUC25": 0.112
  },
  {
    "compound": "CC[C@@H](CO)NCCN[C@@H](CC)CO [ethambutol] + CO[C@H]1/C=C/O[C@@]2(C)Oc3c(C)c(O)c4c(O)c(c(/C=N/N5CCN(C)CC5)c(O)c4c3C2=O)NC(=O)/C(C)=C\\C=C\\[C@H](C)[C@H](O)[C@@H](C)[C@@H](O)[C@@H](C)[C@H](OC(C)=O)[C@@H]1C [rifampicin]",
    "AUC25": 0.0842
  }
]

Form field AUC25, entry COc1c(N2C[C@@H]3CCCN[C@@H]3C2)c(F)cc2c(=O)c(C(=O)O)cn(C3CC3)c12 [moxifloxacin] + O=[N+]([O-])c1cn2c(n1)OC[C@@H](OCc1ccc(OC(F)(F)F)cc1)C2 [pretomanid] : 0.119
